Biological target: Flt-3 (baculovirus expressed human Flt-3 kinase domain R571-S993) (Homo sapiens);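 also: Luciferase-coupled chemiluminescent kinase assay, activity read as percent ATP left after a 3 h reaction at room temperature, ATP near KM, 10-point dose-response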
Construct: human Flt-3 kinase domain R571-S993; host or cells: baculovirus expression
Sequence (P36888 571-993): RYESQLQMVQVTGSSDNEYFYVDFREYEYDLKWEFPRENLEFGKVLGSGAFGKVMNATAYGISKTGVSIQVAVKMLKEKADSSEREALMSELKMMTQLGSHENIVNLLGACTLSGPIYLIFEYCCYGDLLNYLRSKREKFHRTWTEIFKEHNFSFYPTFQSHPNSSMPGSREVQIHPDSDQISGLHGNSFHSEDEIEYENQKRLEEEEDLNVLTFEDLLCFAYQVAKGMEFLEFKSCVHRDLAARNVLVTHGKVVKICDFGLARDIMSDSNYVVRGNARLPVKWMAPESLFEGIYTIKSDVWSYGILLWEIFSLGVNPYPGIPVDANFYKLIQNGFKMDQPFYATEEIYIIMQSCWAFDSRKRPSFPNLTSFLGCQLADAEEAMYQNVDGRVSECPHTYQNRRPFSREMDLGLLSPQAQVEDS
Test: biochemical
Details: read-out: flt3 IC50
endpoint: IC50

CCN(CC)CCOc1cc2nccc(Oc3ccc(NC(=O)C4(C(=O)Nc5ccc(F)cc5)CC4(C)C)cc3F)c2cc1OC (stereo not shown) | 500 to 5000 nM
COc1cc2c(Oc3ccc(NC(=O)C4(C(=O)Nc5ccc(F)cc5)CC4)cc3F)ccnc2cc1OCCCN1CCN(C)CC1 | < 50 nM
COc1cc2c(Oc3ccc(NC(=O)C4(C(=O)Nc5ccc(F)cc5)CCC4)cc3F)ncnc2cc1OCCCN1CCOCC1 | 50 to 500 nM

Data request: Requested read-out: IC50. Entry: COc1cc2nccc(Oc3ccc(N4CC(Cc5ccccc5)N(S(=O)(=O)c5ccc(C)cc5)C4=O)cc3)c2cc1OC (stereo not shown)
Data returned: 500 to 5000 nM

Data request: Requested read-out: IC50. Entry: COc1cc2nccc(Oc3ncc(NC(=O)C4(C(=O)NCc5ccccc5)CC4)cc3Cl)c2cc1OC
Data returned: 50 to 500 nM

Data request: Requested read-out: IC50. Entry: CCN(CC)CCOc1cc2nccc(Oc3ccc(NC(=O)C4(C(=O)Nc5ccc(F)cc5)CCC4)cc3F)c2cc1OC
Data returned: 50 to 500 nM

Hey, just so you know, these numbers are from patent US8476298B2.
